# method_notes: Acute toxicity
# Type: in vivo
# stated_conditions: mouse, in vivo, ip, mice, 7 days observation
Entries and their LD50 at 168 h values follow.

Solved cases below.
* Cc1ccc(C(=O)C(C)CN2CCCCC2)cc1 (stereo not drawn) | 210 mg/kg
* Cc1cc(C)c(C(=O)C(C)CN2CCCCC2)c(C)c1 (stereo not drawn) | 156 mg/kg
* COc1ccc(C(=O)C(C)CN2CCCCC2)c(C)c1C (stereo not drawn) | 145 mg/kg
* Cc1ccc(C(=O)C(C)CN2CCCCC2)cc1C (stereo not drawn) | 140 mg/kg
* COc1ccc(C(=O)C(C)CN2CCCCC2)cc1OC (stereo not drawn) | 247 mg/kg

Q: Sample CCOc1ccc(C(=O)C(C)CN2CCCC2)c(C)c1C (stereo not drawn) — what was its LD50 at 168 h?
Result: 134 mg/kg

Q: Next: COc1ccc(C(=O)CCN2CCCC2)c(C)c1C
Result: 174 mg/kg

Q: Please answer likewise for CCc1ccc(C(=O)C(C)CN2CCCCC2)cc1 (stereo not drawn)
Result: 129 mg/kg

Q: Input COc1ccc(C(=O)C(C)CN2CCCC2)c(C)c1C (stereo not drawn)
Result: 161 mg/kg

// data source = patent US4528299A
